- test-protocol: cells
- Format: functional
Activity calls are given as the source filed them. The rule behind the calls is not given here.
Would you mind telling me the reported IC50 of each entry?

Problem: IC50 for O=C(Nc1ccc(F)cc1F)c1cc2ccccc2oc1=O ?
Result: 39.7 µM (active)

Problem: Another compound: CCOC(=O)Cc1c(C)nc2c(-c3cccc(Br)c3)cnn2c1O
Result: 3.08 µM (active)

Problem: Another compound: CCCn1nnnc1NC(=O)c1cc(Cl)ccc1Cl
Result: 5.95 µM (active)

Problem: Another compound: COc1cc(OC)cc(C(=O)Oc2c(CN3CCOCC3)cc(Cl)c3cccnc23)c1
Result: 15.4 µM (active)

Problem: Another compound: O=C(CCC(=O)Nc1ccc(Cl)cc1Cl)N/N=C/c1ccc([N+](=O)[O-])o1
Result: 0.85 µM (active)

Problem: Another compound: CC(=O)Oc1ccc(N2C(=O)c3cccc4c([N+](=O)[O-])ccc(c34)C2=O)cc1
Result: 9.16 µM (active)
